Reference source: ChEMBL document CHEMBL5042556

So I've got a bunch of compounds here, and I need their CLint values.
Test: Clearance in human hepatocyte measured per 10^6 cells
Format: ADME, cell-based
Details: hepatocytes
Report only the number, with the unit µL/min/1e6 cells understood.

C[C@H]1OC(=O)[C@]2(N)CC(F)(F)[C@@H](C)[C@H](/C=C/c3ccc(-c4ccccc4C#N)cn3)[C@H]12 has a reported CLint of 1.1

CCNC(=O)N1C[C@H]2[C@H](C)[C@@H](C)[C@H](/C=C/c3ccc(-c4ccccc4C#N)cn3)[C@@H]3[C@@H](C)OC(=O)[C@@]32C1 has a reported CLint of 7.3

Cc1cccc(-c2ccc(/C=C/[C@@H]3[C@@H]4[C@@H](C)OC(=O)[C@]4(O)CC(F)(F)[C@H]3C)nc2)c1C#N has a reported CLint of 4.3

----------
Assay: Oral bioavailability in rat at 10 mg/kg
Type: ADME, organism-based
Conditions: in vivo
RECORDED ENDPOINT: bioavailability (%)
Report only the number, with the unit % understood.

C[C@H]1OC(=O)[C@]2(N)CC(F)(F)[C@@H](C)[C@H](/C=C/c3ccc(-c4ccccc4C#N)cn3)[C@H]12 has a reported bioavailability of 54

----------
System: P-glycoprotein
Experiment: Effect on rat P-glycoprotein expressed in MDCK cells assessed as efflux ratio of apparent permeability across basolateral to apical side over apical to basolateral side (reference value: 0.6 to 0.8)
Type: ADME, cell-based, MDCKII-LE
Details: MDCK-MDR1
RECORDED ENDPOINT: efflux ratio
Number only, please.

Readout efflux ratio for Cc1cccc(-c2ccc(/C=C/[C@@H]3[C@@H]4[C@@H](C)OC(=O)[C@]4(O)CC(F)(F)[C@H]3C)nc2)c1C#N , test system P-glycoprotein, was 3.3

----------
Target: Voltage-gated inwardly rectifying potassium channel KCNH2 (Homo sapiens, UniProt Q12809)
Sequence (Q12809 whole entry): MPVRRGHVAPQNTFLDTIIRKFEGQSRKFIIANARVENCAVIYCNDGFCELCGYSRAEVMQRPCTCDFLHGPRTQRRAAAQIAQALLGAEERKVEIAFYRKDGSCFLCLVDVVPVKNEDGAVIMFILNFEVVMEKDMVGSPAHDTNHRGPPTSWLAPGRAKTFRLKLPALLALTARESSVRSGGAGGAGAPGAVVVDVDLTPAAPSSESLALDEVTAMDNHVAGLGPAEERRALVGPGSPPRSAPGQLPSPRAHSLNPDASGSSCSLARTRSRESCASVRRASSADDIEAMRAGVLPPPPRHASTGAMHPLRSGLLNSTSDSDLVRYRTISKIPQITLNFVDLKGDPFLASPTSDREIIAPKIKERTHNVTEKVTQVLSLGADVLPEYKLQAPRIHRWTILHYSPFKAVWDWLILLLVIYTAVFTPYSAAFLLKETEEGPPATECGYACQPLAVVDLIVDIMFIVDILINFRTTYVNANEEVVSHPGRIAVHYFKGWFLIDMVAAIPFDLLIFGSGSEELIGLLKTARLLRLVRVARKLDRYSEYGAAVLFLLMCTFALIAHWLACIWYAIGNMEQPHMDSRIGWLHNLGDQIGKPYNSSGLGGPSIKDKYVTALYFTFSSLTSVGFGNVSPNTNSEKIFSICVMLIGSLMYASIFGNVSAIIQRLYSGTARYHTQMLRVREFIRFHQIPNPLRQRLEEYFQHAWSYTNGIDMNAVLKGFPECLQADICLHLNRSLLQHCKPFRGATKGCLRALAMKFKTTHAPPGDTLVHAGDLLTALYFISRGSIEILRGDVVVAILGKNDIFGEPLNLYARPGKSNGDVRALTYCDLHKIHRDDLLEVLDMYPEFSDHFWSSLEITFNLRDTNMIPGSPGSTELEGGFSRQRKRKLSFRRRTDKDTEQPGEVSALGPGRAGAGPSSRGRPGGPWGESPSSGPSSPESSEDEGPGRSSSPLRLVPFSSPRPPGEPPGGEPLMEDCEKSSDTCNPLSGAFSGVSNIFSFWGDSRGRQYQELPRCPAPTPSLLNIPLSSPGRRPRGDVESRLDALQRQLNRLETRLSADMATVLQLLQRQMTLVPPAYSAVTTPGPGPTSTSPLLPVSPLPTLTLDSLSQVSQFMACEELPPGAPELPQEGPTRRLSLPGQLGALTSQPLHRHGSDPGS
Experiment: Inhibition of [35S]MK-499 binding to hERG expressed in HEK293 cells at 60 uM
Type: toxicity, cell-based
RECORDED ENDPOINT: IC50 (µM)
Report only the number, with the unit µM understood.

CCNC(=O)N1C[C@H]2[C@H](C)[C@@H](C)[C@H](/C=C/c3ccc(-c4ccccc4C#N)cn3)[C@@H]3[C@@H](C)OC(=O)[C@@]32C1 has a reported IC50 of 9

Cc1cccc(-c2ccc(/C=C/[C@@H]3[C@@H]4[C@@H](C)OC(=O)[C@]4(O)CC(F)(F)[C@H]3C)nc2)c1C#N has a reported IC50 of 9

----------
Test: MRT in rat at 1 mg/kg, iv
Type: ADME, organism-based
Conditions: in vivo
So I've got a bunch of compounds here, and I need their MRT values.
Report only the number, with the unit h understood.

C[C@H]1OC(=O)[C@]2(O)CC(F)(F)[C@@H](C)[C@H](/C=C/c3ccc(-c4ccccc4C#N)cn3)[C@H]12 has a reported MRT of 20

Cc1cccc(-c2ccc(/C=C/[C@@H]3[C@@H]4[C@@H](C)OC(=O)[C@]4(O)CC(F)(F)[C@H]3C)nc2)c1C#N has a reported MRT of 2.2

C[C@H]1OC(=O)[C@]2(N)CC(F)(F)[C@@H](C)[C@H](/C=C/c3ccc(-c4ccccc4C#N)cn3)[C@H]12 has a reported MRT of 1.4

CC[C@H]1[C@H](/C=C/c2ccc(-c3ccccc3C#N)cn2)[C@@H]2[C@@H](C)OC(=O)[C@]2(O)CC1(F)F has a reported MRT of 5.5

----------
Test: Toxicity in rat assessed as non-toxic AUC for liver bioactivation at 30 mg/kg
Format: organism-based
Conditions: in vivo
RECORDED ENDPOINT: AUC (µM·h)
Report only the number, with the unit µM·h understood.

C[C@H]1OC(=O)[C@]2(N)CC(F)(F)[C@@H](C)[C@H](/C=C/c3ccc(-c4ccccc4C#N)cn3)[C@H]12 has a reported AUC of 44

----------
Assay: MRT in intravenously dosed cynomolgus monkey
Assay type: ADME, organism-based, Macaca fascicularis
Conditions: in vivo, iv
RECORDED ENDPOINT: MRT (h)
Report only the number, with the unit h understood.

CCNC(=O)N1C[C@H]2[C@H](C)[C@@H](C)[C@H](/C=C/c3ccc(-c4ccccc4C#N)cn3)[C@@H]3[C@@H](C)OC(=O)[C@@]32C1 has a reported MRT of 1.8

Cc1cccc(-c2ccc(/C=C/[C@@H]3[C@@H]4[C@@H](C)OC(=O)[C@]4(O)CC(F)(F)[C@H]3C)nc2)c1C#N has a reported MRT of 3

----------
Assay: Clearance in mouse hepatocyte measured per 10^6 cells
Assay type: ADME, cell-based
Details: hepatocytes
RECORDED ENDPOINT: CLint (µL/min/1e6 cells)
Report only the number, with the unit µL/min/1e6 cells understood.

CCNC(=O)N1C[C@H]2[C@H](C)[C@@H](C)[C@H](/C=C/c3ccc(-c4ccccc4C#N)cn3)[C@@H]3[C@@H](C)OC(=O)[C@@]32C1 has a reported CLint of 19.7

Cc1cccc(-c2ccc(/C=C/[C@@H]3[C@@H]4[C@@H](C)OC(=O)[C@]4(O)CC(F)(F)[C@H]3C)nc2)c1C#N has a reported CLint of 11.4

C[C@H]1OC(=O)[C@]2(N)CC(F)(F)[C@@H](C)[C@H](/C=C/c3ccc(-c4ccccc4C#N)cn3)[C@H]12 has a reported CLint of 3.3

----------
Experiment: AUC in Sprague-Dawley rat at 50 mg/kg, po
Type: ADME, organism-based
Parameters: dose 50 mg/kg
Conditions: in vivo
RECORDED ENDPOINT: AUC (µM·h)
Report only the number, with the unit µM·h understood.

C[C@H]1OC(=O)[C@]2(N)CC(F)(F)[C@@H](C)[C@H](/C=C/c3ccc(-c4ccccc4C#N)cn3)[C@H]12 has a reported AUC of 191

----------
So I've got a bunch of molecules here, and I need their fraction unbound values.
Test: Plasma protein binding in dog assessed as unbound fraction
Format: ADME, cell-free, Canis lupus familiaris
Number only, please.

Cc1cccc(-c2ccc(/C=C/[C@@H]3[C@@H]4[C@@H](C)OC(=O)[C@]4(O)CC(F)(F)[C@H]3C)nc2)c1C#N has a reported fraction unbound of 0.02

CCNC(=O)N1C[C@H]2[C@H](C)[C@@H](C)[C@H](/C=C/c3ccc(-c4ccccc4C#N)cn3)[C@@H]3[C@@H](C)OC(=O)[C@@]32C1 has a reported fraction unbound of 0.05

C[C@H]1OC(=O)[C@]2(N)CC(F)(F)[C@@H](C)[C@H](/C=C/c3ccc(-c4ccccc4C#N)cn3)[C@H]12 has a reported fraction unbound of 0.15

----------
So I've got a bunch of compounds here, and I need their clearance values.
Assay: Clearance in rat at 3 mg/kg, iv
Format: ADME, organism-based
Settings: in vivo
Report only the number, with the unit mL/min/kg understood.

CCNC(=O)N1C[C@H]2[C@H](C)[C@@H](C)[C@H](/C=C/c3ccc(-c4ccccc4C#N)cn3)[C@@H]3[C@@H](C)OC(=O)[C@@]32C1 has a reported clearance of 46

Cc1cccc(-c2ccc(/C=C/[C@@H]3[C@@H]4[C@@H](C)OC(=O)[C@]4(O)CC(F)(F)[C@H]3C)nc2)c1C#N has a reported clearance of 37

C[C@H]1OC(=O)[C@]2(N)CC(F)(F)[C@@H](C)[C@H](/C=C/c3ccc(-c4ccccc4C#N)cn3)[C@H]12 has a reported clearance of 31

----------
Assay: Clearance in cynomolgus monkey at 0.3 mg/kg, iv
Format: ADME, organism-based, Macaca fascicularis
Conditions: in vivo
RECORDED ENDPOINT: clearance

C[C@H]1OC(=O)[C@]2(N)CC(F)(F)[C@@H](C)[C@H](/C=C/c3ccc(-c4ccccc4C#N)cn3)[C@H]12 has a reported clearance of 12 mL/min/kg

----------
Experiment: MRT in cynomolgus monkey at 0.3 mg/kg, iv
Format: ADME, organism-based, Macaca fascicularis
Settings: in vivo
RECORDED ENDPOINT: MRT
Answer format: number, then unit.

C[C@H]1NC(=O)[C@]2(N)CC(F)(F)[C@@H](C)[C@H](/C=C/c3ccc(-c4ccccc4C#N)cn3)[C@H]12 has a reported MRT of 38.4 h

Cc1cccc(-c2ccc(/C=C/[C@@H]3[C@@H]4[C@@H](C)OC(=O)[C@]4(O)CC(F)(F)[C@H]3C)nc2)c1C#N has a reported MRT of 3.2 h

----------
Test: Clearance in dog hepatocyte measured per 10^6 cells
Type: ADME, cell-based, Canis lupus familiaris
Conditions: hepatocytes
So I've got a bunch of compounds here, and I need their CLint values.
Answer format: number, then unit.

Cc1cccc(-c2ccc(/C=C/[C@@H]3[C@@H]4[C@@H](C)OC(=O)[C@]4(O)CC(F)(F)[C@H]3C)nc2)c1C#N has a reported CLint of 41.7 µL/min/1e6 cells

C[C@H]1OC(=O)[C@]2(N)CC(F)(F)[C@@H](C)[C@H](/C=C/c3ccc(-c4ccccc4C#N)cn3)[C@H]12 has a reported CLint of 2 µL/min/1e6 cells

CCNC(=O)N1C[C@H]2[C@H](C)[C@@H](C)[C@H](/C=C/c3ccc(-c4ccccc4C#N)cn3)[C@@H]3[C@@H](C)OC(=O)[C@@]32C1 has a reported CLint of 11.8 µL/min/1e6 cells
